ASSAY_TARGET: human P2X4 (Homo sapiens, UniProt Q99571)
Sequence (Q99571 whole entry): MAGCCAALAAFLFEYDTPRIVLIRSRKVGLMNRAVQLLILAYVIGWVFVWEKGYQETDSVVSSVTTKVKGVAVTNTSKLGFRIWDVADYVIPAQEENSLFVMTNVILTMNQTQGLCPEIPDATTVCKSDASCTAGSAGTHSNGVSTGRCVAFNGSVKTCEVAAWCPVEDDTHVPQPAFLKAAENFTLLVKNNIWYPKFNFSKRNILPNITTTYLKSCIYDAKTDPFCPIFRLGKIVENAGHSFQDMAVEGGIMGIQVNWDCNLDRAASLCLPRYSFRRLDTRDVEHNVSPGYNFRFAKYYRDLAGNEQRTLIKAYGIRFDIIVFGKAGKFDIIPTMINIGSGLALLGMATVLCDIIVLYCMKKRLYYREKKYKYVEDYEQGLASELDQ
ASSAY_OVERVIEW: Human P2X4 HEK Cell FLIPR Assay
Format: cell-based
CONDITION_DETAILS: HEK293, HEK293 cells, agonist Bz-ATP at EC80; percentage of maximal inhibition; read-out: Human P2X4 HEK Cells (FLIPR Assay) avg Efficacy [%]
EXPERIMENTAL_READOUT: Emax (%)
Form entry: value (%) — number only.

Completed entries (count: 2):
Cc1csc(-c2ccc(NC(=O)Cc3ccccc3Cl)cc2S(N)(=O)=O)n1	74
NS(=O)(=O)c1cc(NC(=O)Cc2ccccc2Cl)ccc1-c1cnn(C2CNC2)c1	82

# Emax (compound: NS(=O)(=O)c1cc(NC(=O)Cc2ccccc2Cl)ccc1-n1cc(Cl)cn1 ) is 93

# Emax (compound: N#Cc1cn(-c2ccc(NC(=O)Cc3ccccc3Cl)cc2S(N)(=O)=O)nc1Br ) is 79

# Emax (compound: COc1ccc(CC(=O)Nc2ccc(-c3ccc(Cl)nc3)c(S(N)(=O)=O)c2)c(F)c1 ) is 97
